Test system: Pancreatin
Assay: Protease stability in simulated intestinal fluid (Pancreatin-SIF, FaSSIF)
Format: in vitro ADME
Settings: 60 min, 1 μM peptide, 37° C., read-out: FaSSIF 60 (min), remaining percent of peptide
Experimental: Studies were carried out in simulated intestinal fluid (SIF) and simulated gastric fluid (SGF) to evaluate gastric stability of the peptide compounds disclosed herein. […] To 76 μL of the Pepsin-SGF buffer, 4 μL of the 20 µM peptide stock solution was added and incubated at 37° C. […] The samples were centrifuged for 20 minutes and an aliquot of the supernatant 100 μL were transferred to a LoBind-MTP plate and analyzed by LCMS/MS. […]
Starred links: 1 amine or outer side, 2 acyl side, 3 side chain; linkers in the order of their positions; H or OH if unused. Positions of bridges follow the written chain, without caps; N, C: chain ends. Non-standard residues stand in square brackets, D forms with d. Residues, ends and D or L forms follow the SMILES beside them. *: point of attachment. X3 = CN(CCCCC(=O)N[C@@H](CS[*:2])C(=O)[*:1])[*:3]; X6 = O=C(CCC(=O)[*:3])N[C@@H](CS[*:2])C(=O)[*:1]; Trp(7-Me) = Cc1cccc2c(C[C@H](N)C(=O)O)c[nH]c12; 2Nal = N[C@@H](Cc1ccc2ccccc2c1)C(=O)O; AEF = NCCOc1ccc(C[C@H](N)C(=O)O)cc1; 3Pal = N[C@@H](Cc1cccnc1)C(=O)O; αMeL = CC(C)C[C@](C)(N)C(=O)O; Thp = NC1(C(=O)O)CCOCC1; Me2NCH2CH2 = CN(C)CC*; Aib = CC(C)(N)C(=O)O; Ava = NCCCCC(=O)O; Sar = CNCC(=O)O
remaining at 1 h, 1 µM values, listed per item
Give just the numeric value; % need not be written.

Recorded results for 2 compounds are shown here.
compound="CC(=O)NCCCC[C@@H]1NC(=O)[C@H](Cc2c[nH]c3c(C)cccc23)NC(=O)[C@H]([C@@H](C)O)NC(=O)[C@H](CC(N)=O)NC(=O)[C@@H]2CSSC[C@H](NC1=O)C(=O)N[C@@H](Cc1ccc(OCCN(C)C)cc1)C(=O)N[C@@H](Cc1ccc3ccccc3c1)C(=O)NC1(CCOCC1)C(=O)N[C@H](C(=O)N[C@@H](CC(N)=O)C(=O)N[C@@H](Cc1cccnc1)C(N)=O)CCC(=O)NCCCCC(=O)N2 [compound 51] ([Ava]CNT[Trp(7-Me)]K(Ac)CY(Me2NCH2CH2)[2Nal][Thp]EN[3Pal]-NH2; disulfide 2-7; lactam N-11)" reading_unit=% numeric_value=92
compound="CC(=O)N[C@H]1CCCCNC(=O)[C@@H]2CSSC[C@H](NC(=O)[C@H](CCC(N)=O)NC(=O)[C@H](Cc3c[nH]c4ccccc34)NC1=O)C(=O)N[C@@H](Cc1ccc(OCCN)cc1)C(=O)N[C@@H](Cc1ccc3ccccc3c1)C(=O)N[C@@](C)(CC(C)C)C(=O)N[C@H](C(=O)N[C@@H](C)C(=O)N[C@H](CC(C)C)C(N)=O)CCC(=O)N(C)CCCCC(=O)N2 [compound 44] (Ac-KWQC[AEF][2Nal][αMeL]EA[dL]-NH2; linker 1-4-8 via X3)" reading_unit=% numeric_value=64

QUERY: What remaining at 1 h, 1 µM appears in the records for this compound with Pancreatin? CC(=O)N[C@H]1CCCCNC(=O)[C@@H]2CSSC[C@H](NC(=O)[C@H](CCC(N)=O)NC(=O)[C@H](Cc3c[nH]c4ccccc34)NC1=O)C(=O)N[C@@H](Cc1ccc(OCCN)cc1)C(=O)N[C@@H](Cc1ccc3ccccc3c1)C(=O)N[C@@](C)(CC(C)C)C(=O)N[C@H](C(=O)N[C@@H](C)C(=O)NCC(N)=O)CCC(=O)N(C)CCCCC(=O)N2 [compound 18] (Ac-KWQC[AEF][2Nal][αMeL]EAG-NH2; linker 1-4-8 via X3)
RESULT: 81

QUERY: So what remaining at 1 h, 1 µM did CC(=O)NCCCC[C@@H]1NC(=O)[C@H](Cc2c[nH]c3c(C)cccc23)NC(=O)[C@@H](NC(C)=O)CCCCNC(=O)[C@@H]2CSSC[C@H](NC1=O)C(=O)N[C@@H](Cc1ccc(OCCN(C)C)cc1)C(=O)N[C@@H](Cc1ccc3ccccc3c1)C(=O)NC(C)(C)C(=O)N[C@H](C(=O)N[C@@H](CC(N)=O)C(=O)N[C@@H](Cc1cccnc1)C(=O)N(C)CC(N)=O)CCCCNC(=O)CCC(=O)N2 [compound 104] (Ac-K[Trp(7-Me)]K(Ac)CY(Me2NCH2CH2)[2Nal][Aib]KN[3Pal][Sar]-NH2; linker 1-4-8 via X6) get with Pancreatin?
RESULT: 80

QUERY: Request: remaining at 1 h, 1 µM, test system Pancreatin, entry COc1ccc(C[C@@H]2NC(=O)[C@@H]3CSSC[C@H](NC(=O)CCC(=O)NCCCC[C@@H](C(=O)N[C@@H](CC(N)=O)C(=O)N[C@@H](CC(N)=O)C(N)=O)NC(=O)C(C)(C)NC(=O)[C@H](Cc4ccc5ccccc5c4)NC2=O)C(=O)N[C@@H](CC(N)=O)C(=O)N[C@@H]([C@@H](C)O)C(=O)N[C@@H](Cc2c[nH]c4ccccc24)C(=O)N[C@@H](CCC(N)=O)C(=O)N3)cc1
RESULT: 80

###

Each entry below carries its recorded remaining at 1 h, 1 µM.
tested on: Pancreatin; assay: Protease stability in simulated intestinal fluid (Pancreatin-SIF, FaSSIF); format: in vitro ADME; settings: 60 min, 1 μM peptide, 37° C., read-out: FaSSIF 60 (min), remaining percent of peptide
Starred links: 1 amine or outer side, 2 acyl side, 3 side chain; linkers in the order of their positions; H or OH if unused. Positions of bridges follow the written chain, without caps; N, C: chain ends. Non-standard residues stand in square brackets, D forms with d. Residues, ends and D or L forms follow the SMILES beside them. *: point of attachment. Trp(7-Me) = Cc1cccc2c(C[C@H](N)C(=O)O)c[nH]c12; X1 = O=C(CCCCN[*:3])N[C@@H](CS[*:2])C(=O)[*:1]; 2Nal = N[C@@H](Cc1ccc2ccccc2c1)C(=O)O; 3Pal = N[C@@H](Cc1cccnc1)C(=O)O; αMeL = CC(C)C[C@](C)(N)C(=O)O; Me2NCH2CH2 = CN(C)CC*; Aib = CC(C)(N)C(=O)O; Ava = NCCCCC(=O)O; Sar = CNCC(=O)O
Give the number; % is assumed, so skip it.

Solved entries:
compound="COc1ccc(C[C@@H]2NC(=O)[C@@H]3CSSC[C@H](NC(=O)CCCCNC(=O)CC[C@@H](C(=O)N[C@@H](CC(N)=O)C(=O)NCC(N)=O)NC(=O)C(C)(C)NC(=O)[C@H](Cc4ccc5ccccc5c4)NC2=O)C(=O)N[C@@H](CC(N)=O)C(=O)N[C@@H]([C@@H](C)O)C(=O)N[C@@H](Cc2c[nH]c4ccccc24)C(=O)N[C@@H](CCC(N)=O)C(=O)N3)cc1 [compound 4] ([Ava]CNTWQCY(Me)[2Nal][Aib]ENG-NH2; disulfide 2-7; lactam N-11)" measured_quantity="remaining at 1 h, 1 µM" reading_unit=% numeric_value=91
compound="CC(=O)NCCCC[C@@H]1NC(=O)[C@H](Cc2c[nH]c3c(C)cccc23)NC(=O)[C@@H](NC(C)=O)CCCCNC(=O)[C@@H]2CSSC[C@H](NC1=O)C(=O)N[C@@H](Cc1ccc(OCCN(C)C)cc1)C(=O)N[C@@H](Cc1ccc3ccccc3c1)C(=O)N[C@@](C)(CC(C)C)C(=O)N[C@H](C(=O)N[C@@H](CC(N)=O)C(=O)N[C@@H](Cc1cccnc1)C(=O)N(C)CC(N)=O)CCC(=O)NCCCCC(=O)N2 [compound 73] (Ac-K[Trp(7-Me)]K(Ac)CY(Me2NCH2CH2)[2Nal][αMeL]EN[3Pal][Sar]-NH2; linker 1-4-8 via X1)" measured_quantity="remaining at 1 h, 1 µM" reading_unit=% numeric_value=82
compound="CC(=O)NCCCC[C@@H]1NC(=O)[C@H](Cc2c[nH]c3c(C)cccc23)NC(=O)[C@H]([C@@H](C)O)NC(=O)[C@H](CC(N)=O)NC(=O)[C@@H]2CSSC[C@H](NC1=O)C(=O)N[C@@H](Cc1ccc(OCCN(C)C)cc1)C(=O)N[C@@H](Cc1ccc3ccccc3c1)C(=O)NC(C)(C)C(=O)N[C@H](C(=O)N[C@@H](CC(N)=O)C(=O)N[C@@H](Cc1c[nH]cn1)C(=O)N(C)CC(N)=O)CCC(=O)NCCCCC(=O)N2 [compound 45] ([Ava]CNT[Trp(7-Me)]K(Ac)CY(Me2NCH2CH2)[2Nal][Aib]ENH[Sar]-NH2; disulfide 2-7; lactam N-11)" measured_quantity="remaining at 1 h, 1 µM" reading_unit=% numeric_value=82

Next:
QUERY: What measured remaining at 1 h, 1 µM goes with CC(C)C[C@]1(C)NC(=O)[C@H](Cc2ccc3ccccc3c2)NC(=O)[C@H](Cc2ccc(OCCN(C)C)cc2)NC(=O)[C@@H]2CSSC[C@H](NC(=O)CCCCNC(=O)CC[C@@H](C(=O)N[C@@H](CC(N)=O)C(=O)N[C@@H](CC(N)=O)C(N)=O)NC1=O)C(=O)N[C@@H](CC(N)=O)C(=O)N[C@@H]([C@@H](C)O)C(=O)N[C@@H](Cc1c[nH]c3ccccc13)C(=O)N[C@@H](CCC(N)=O)C(=O)N2 [compound 27] ([Ava]CNTWQCY(Me2NCH2CH2)[2Nal][αMeL]ENN-NH2; disulfide 2-7; lactam N-11) ?
RESULT: 81

The reported measurements were obtained from patent US20260258084A1.
